- EXPERIMENTAL SYSTEM: Aldo-keto reductase family 1 member B10 (Homo sapiens)
- Sequence (O60218 whole entry): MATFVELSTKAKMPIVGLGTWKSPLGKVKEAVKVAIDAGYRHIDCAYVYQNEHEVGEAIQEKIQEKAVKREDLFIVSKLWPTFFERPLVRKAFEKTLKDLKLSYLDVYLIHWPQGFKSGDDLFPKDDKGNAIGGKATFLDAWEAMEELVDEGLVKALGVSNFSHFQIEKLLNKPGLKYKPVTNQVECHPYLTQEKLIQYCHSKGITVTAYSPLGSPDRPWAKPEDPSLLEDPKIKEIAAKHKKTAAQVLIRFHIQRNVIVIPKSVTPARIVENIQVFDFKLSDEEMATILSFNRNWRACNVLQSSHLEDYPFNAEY
READOUT NAME: IC50 (nM)

* O=C(/C=C/c1ccc(O)c(O)c1)OCCc1ccccc1 | 390

====

- EXPERIMENTAL SYSTEM: AKR1C2 (Homo sapiens)
- Sequence (P52895 whole entry): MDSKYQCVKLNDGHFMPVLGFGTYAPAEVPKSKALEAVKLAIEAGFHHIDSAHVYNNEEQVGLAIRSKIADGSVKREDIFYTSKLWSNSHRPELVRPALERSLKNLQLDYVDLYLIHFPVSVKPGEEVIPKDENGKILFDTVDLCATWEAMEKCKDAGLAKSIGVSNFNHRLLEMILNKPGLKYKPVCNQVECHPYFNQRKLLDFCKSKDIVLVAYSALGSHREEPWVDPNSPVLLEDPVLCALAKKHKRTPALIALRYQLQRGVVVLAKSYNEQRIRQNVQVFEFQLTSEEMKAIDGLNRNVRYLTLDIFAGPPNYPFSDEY
- PROCEDURE DETAILS: Inhibition of AKR1C2 (unknown origin) using 9,10-phenanthrenequinone as substrate at 60 uM relative to control
- TEST SETTINGS: probe 9,10-phenanthrenequinone
READOUT NAME: inhibition at 60 µM

- COc1ccc2c(c1)c(CCNC(C)=O)cn2C(=O)c1ccc(Cl)cc1: < 10%

====

- EXPERIMENTAL SYSTEM: Aldo-keto reductase family 1 member C3 (Homo sapiens, UniProt P42330)
- Sequence (P42330 whole entry): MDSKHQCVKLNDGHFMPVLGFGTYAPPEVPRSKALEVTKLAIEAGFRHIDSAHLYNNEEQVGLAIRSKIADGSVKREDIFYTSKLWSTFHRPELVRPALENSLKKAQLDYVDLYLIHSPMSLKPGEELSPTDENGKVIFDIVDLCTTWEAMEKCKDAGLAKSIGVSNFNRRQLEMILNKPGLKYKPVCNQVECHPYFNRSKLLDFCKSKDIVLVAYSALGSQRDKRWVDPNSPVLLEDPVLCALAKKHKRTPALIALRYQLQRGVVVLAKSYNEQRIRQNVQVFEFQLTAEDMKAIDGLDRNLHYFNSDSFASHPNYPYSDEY
- PROCEDURE DETAILS: Inhibition of AKR1C3 (unknown origin) expressed in human HCT116 cells incubated for 3 to 6 hrs by UHPLC analysis
- Type: cell-based, HCT-116
READOUT NAME: IC50

• CCc1cnn2c(NCc3ccc[n+]([O-])c3)cc(N3CCCC[C@H]3CCO)nc12 [DINACICLIB] = 230 nM

====

- EXPERIMENTAL SYSTEM: Aldo-keto reductase family 1 member C3 (Homo sapiens, UniProt P42330)
- Sequence (P42330 whole entry): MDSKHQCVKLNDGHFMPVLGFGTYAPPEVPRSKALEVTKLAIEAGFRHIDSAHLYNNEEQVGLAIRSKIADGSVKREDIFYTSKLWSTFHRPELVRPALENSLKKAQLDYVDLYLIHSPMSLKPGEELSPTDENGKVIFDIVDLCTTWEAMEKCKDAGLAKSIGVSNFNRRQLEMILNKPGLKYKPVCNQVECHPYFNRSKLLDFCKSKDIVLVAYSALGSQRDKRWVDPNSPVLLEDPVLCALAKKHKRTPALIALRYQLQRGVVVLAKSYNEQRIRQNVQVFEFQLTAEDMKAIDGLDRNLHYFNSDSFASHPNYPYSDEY
- PROCEDURE DETAILS: Inhibition of human AKR1C3 expressed in Escherichia coli preincubated for 15 mins followed by Adion addition and measured after 30 mins by HPLC analysis
READOUT NAME: IC50 (µM)

* CO[C@@H]1C=C[C@@]23c4cc5c(cc4CO[C@]2(O)CN(C)[C@H]3C1)OCO5 | 15.8

====

- EXPERIMENTAL SYSTEM: Aldo-keto reductase family 1 member B1 (Homo sapiens, UniProt P15121)
READOUT NAME: IC50

- CCCCCCCCOC(=O)c1cc(O)c(O)c(O)c1 [OCTYL_GALLATE]: > 100 µM

====

- EXPERIMENTAL SYSTEM: Aldo-keto reductase family 1 member C3 (Homo sapiens)
- PROCEDURE DETAILS: Inhibition of human AKR1C3 expressed in Escherichia coli incubated for 30 mins in presence of NADPH regeneration system by UHPLC analysis
READOUT NAME: IC50 (µM)

- Nc1cc(C(F)(F)F)c(-c2cc(N3CCOCC3)nc(N3CCOCC3)n2)cn1 [BUPARLISIB]: 9.5
- CC(C)C(CO)Nc1nc(Nc2cccc(Cl)c2)c2ncn(C(C)C)c2n1 (stereo not drawn): 6.58
- CCC(CO)Nc1nc(NCc2ccccc2)c2ncn(C(C)C)c2n1 (stereo not drawn) [(RS)-ROSCOVITINE]: 2.15

Measured values drawn from ChEMBL document CHEMBL4665678 for this set.
